This collection of values is drawn from the supplement of paper PMC9170038.

System: K4 kissing-loop RNA reporter;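 also: bound reporter read as fluorescence of individual clusters on recovered sequencing chips by microscopy, with normalized cluster intensities fitted with a binding model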
assayRemarks: apparent KD of K4 kissing-loop reporter; higher = weaker reporter binding
testConditions: Eterna round: R107; input ligand: theophylline 20 uM
Everything with apparent KD of K4 kissing-loop reporter lower than 200 nM is f; everything else, including exactly 200 nM, is t.

See these solved cases before continuing.
sequenceCode	label
UAUUGAGUGAUGUUCGAUAACCAAUCAGAUACCAGUUUUGUAGAAAACCCUUGGCAGCUGCUCAGCUCUAUAAUGCUUCGCCCUU [theeternabot_sameState_KL_Theo_A_18]	f
CCCAGUGAUGUUGGUUAAUAUAUUGAUUAACGAGGACCGGUACGGCCGCCACUCGAUAUUUCUAUAAUUAAAAGUUUUGUUUAAA [JR_SSTryptoA_Sub001]	t
CCAUUCUGUUACGAUACCAGUCAAAGAUAUUUGAUCAAUACCCUCGCCGAGUGAUGUUCGGACCCUUGGCAGCGUCUGGGACAGG [fdxxvmullin]	t
GCAUAGCAGACGUUGAGUGGGAGCCAGGCACGAGGACCGGUACGGCCGCCACUCGACUAGGUUUUCAGUGAUGUUGAAAAUUUAG [Exclusion Tryptophan A GF4]	f
GUAGCCCUAUGUGAUACCAGACGGUAUAAAAUCCUGGCGGCCAGUGAUGUUGGCCAUCGCGUCCCUUGGCAGCACCAAGGCUGUA [theeternabot_sameState_KL_Theo_B_18]	f

Is it the case that GGAGGAGAGGGAAGGAGCGUGAAAGAGAAAGAAUAUAGUGAUGUUAUAUAGAAGAAAGAAUCACAGGUAGGUCGCCCGGAGGAGG [SSArgB.A] has apparent KD of K4 kissing-loop reporter reaching or exceeding 200 nM? t
